System: MOLT-4 leukemia
Experiment: NCI tumour cell line growth inhibition, 48 h
Reported TGI is given for each of the following compounds.

Some entries whose results are on file:
>>> assay_value("CCCCCC/C(CC(=O)CCC(=O)NCCc1ccccc1)=N\\NC(=O)c1ccc2ccccc2c1O")
"56.5 µM"
>>> assay_value("CC1(C)O[C@@H](CP(c2ccc3ccccc3c2)c2ccc3ccccc3c2)[C@H](CP(c2ccc3ccccc3c2)c2ccc3ccccc3c2)O1")
"> 100 µM"
>>> assay_value("Cn1c(=O)c2[nH]cnc2n(C)c1=O.[CH2-]C(Cc1cccc2cc(C(=O)O)c(=O)oc12)OC.[Hg+2].[OH-] (centres undefined)")
"40.5 µM"
>>> assay_value("CCc1cccc(CC)c1NC(=O)C1=CNC(C)=C(C(=O)Nc2c(CC)cccc2CC)C1c1ccc(O)c(OC)c1 (centres undefined)")
"82.9 µM"
>>> assay_value("CC(=O)N1c2ccc(-c3ccc(C(=O)O)cc3)cc2[C@H](Nc2ccc(Cl)cc2)C[C@@H]1C")
"39.2 µM"
>>> assay_value("OCC1(CNc2cc(Cl)ncn2)CCC1")
"> 100 µM"
>>> assay_value("CC(=O)OC1(C#N)CC2OC1C1NC21 (centres undefined)")
"> 100 µM"
>>> assay_value("C[C@H](c1ccc(Cl)cc1[N+](=O)[O-])N1C(=O)c2cc(I)ccc2NC(=O)[C@H]1c1ccc(Cl)cc1")
"> 100 µM"
>>> assay_value("COC(=O)c1ccccc1Nc1ccccc1C(=O)OC")
"> 100 µM"
>>> assay_value("C=CC(=O)Nc1cccc(Nc2nc(Nc3ccc(N4CCN(C(C)=O)CC4)cc3OC)ncc2C(F)(F)F)c1")
"> 58.5 µM"

Would you mind telling me what TGI value was observed for "CCCC(CCC)C(=O)O" ? > 20000 µM

Please give the measured TGI for this compound: N#CC1C(=O)NC(=O)C(C#N)C1c1ccc(Cl)c(Cl)c1 (centres undefined) 62 µM

Given "COc1ccc(-c2c(C#N)cnc(N)c2-c2nc3cc(C)c(C)cc3[nH]2)cc1" , state its recorded TGI. > 100 µM

Which TGI value belongs to "C[Si](C)(C)C#CCOC=C1CC1" ? > 100 µM
